Assay: Cytotoxicity test (MTT), U937
Format: cell-based
Conditions: human, U937 cells (monocytic blood cancer-derived cell line); U937, 48 h, 10 μM; read-out: Cell viability (% of control)
Note that class boundaries on viability at 48 h, 10 µM are lower segment: < 80%; middle segment: ≥ 80% and < 90%; upper segment: ≥ 90%

{"columns": ["compound", "discrete label"],
 "data": [
  ["CCCNC(=O)Nc1nc(C)c(O)c(C)c1C [Compound 16-1]", "lower segment"],
  ["Cc1nc(NC(=S)Nc2ccc(Cl)cc2)c(C)c(C)c1O [Compound 18-6]", "middle segment"],
  ["Cc1nc(NS(C)(=O)=O)c(C)c(C)c1O [Compound 22-1]", "upper segment"],
  ["COc1cccc2c1C(=O)c1c(O)c3c(c(O)c1C2=O)C[C@@](O)(C(=O)CO)C[C@@H]3O[C@H]1C[C@H](N)[C@H](O)[C@H](C)O1 [Doxorubicin, reference compound]", "lower segment"],
  ["O=c1[nH]cc(F)c(=O)[nH]1 [5-Fluorouracil, reference compound]", "lower segment"]
]}

stdin: Returns: class label. Input: Cc1nc(NC(=O)NS(=O)(=O)c2ccccc2)c(C)c(C)c1O [Compound 16-6]
stdout: middle segment

* * *

Experiment: Cytotoxicity test (MTT), HT-29
Assay type: cell-based
Settings: human, HT-29 cells (colorectal cancer cell line); HT-29, 48 h, 10 μM; read-out: Cell viability (% of control)
Listed here are compounds together with their documented viability at 48 h, 10 µM.
Hey, just the number and the unit after it is fine.

Field: example entries. Status: answers known.
{"columns": ["compound", "viability at 48 h, 10 µM"],
 "data": [
  ["Cc1nc(NC(=S)Nc2ccc(Cl)cc2)c(C)c(C)c1O", "72.8%"],
  ["CCCNC(=O)Nc1nc(C)c(O)c(C)c1C", "70.9%"],
  ["CCCCNC(=S)Nc1nc(C)c(O)c(C)c1C", "96.5%"],
  ["O=c1[nH]cc(F)c(=O)[nH]1 [5-Fluorouracil, reference compound]", "48.3%"],
  ["Cc1nc(NC(=O)OCC(C)C)c(C)c(C)c1O", "83.7%"]
]}

stdin: Return reported viability at 48 h, 10 µM; argument: Cc1nc(NC(=O)Nc2ccc(Cl)cc2)c(C)c(C)c1O
stdout: 89.3%

stdin: Return reported viability at 48 h, 10 µM; argument: COc1cccc2c1C(=O)c1c(O)c3c(c(O)c1C2=O)C[C@@](O)(C(=O)CO)C[C@@H]3O[C@H]1C[C@H](N)[C@H](O)[C@H](C)O1 [Doxorubicin, reference compound]
stdout: 53.2%

stdin: Return reported viability at 48 h, 10 µM; argument: Cc1nc(NS(=O)(=O)c2cccc3ccccc23)c(C)c(C)c1O
stdout: 89.1%

stdin: Return reported viability at 48 h, 10 µM; argument: Cc1nc(NC(=O)OCCCl)c(C)c(C)c1O
stdout: 90.2%

stdin: Return reported viability at 48 h, 10 µM; argument: COC(=O)Nc1nc(C)c(O)c(C)c1C
stdout: 82.6%

* * *

Experiment: Cytotoxicity test (MTT), U937
Assay type: cell-based
Details: human, U937 cells (monocytic blood cancer-derived cell line); U937, 48 h, 1 μM; read-out: Cell viability (% of control)
Listed here are compounds together with their documented viability at 48 h, 1 µM.
Give the quantity in %, number only.

Field: example entries. Status: answers known.
{"columns": ["compound", "viability at 48 h, 1 µM (%)"],
 "data": [
  ["COc1cccc2c1C(=O)c1c(O)c3c(c(O)c1C2=O)C[C@@](O)(C(=O)CO)C[C@@H]3O[C@H]1C[C@H](N)[C@H](O)[C@H](C)O1 [Doxorubicin, reference compound]", 42.2],
  ["CCCCNC(=S)Nc1nc(C)c(O)c(C)c1C", 92.9],
  ["CCCNC(=O)Nc1nc(C)c(O)c(C)c1C", 90],
  ["COC(=O)Nc1nc(C)c(O)c(C)c1C", 93.7],
  ["Cc1nc(NC(=S)NC(C)C)c(C)c(C)c1O", 99.1]
]}

stdin: Return reported viability at 48 h, 1 µM; argument: Cc1nc(NC(=S)Nc2ccccc2)c(C)c(C)c1O
stdout: 96.7

* * *

Experiment: Cytotoxicity test (MTT), U937
Format: cell-based
Details: human, U937 cells (monocytic blood cancer-derived cell line); U937, 48 h, 10 μM; read-out: Cell viability (% of control)
Note that class boundaries on viability at 48 h, 10 µM are low group = under 80%, middle group = from 80% up to 90%, high group = 90% and over

{"columns": ["compound structure string", "discrete label"],
 "data": [
  ["Cc1nc(NS(=O)(=O)c2ccc([N+](=O)[O-])cc2)c(C)c(C)c1O", "middle group"]
]}

Please find the next compound below.
stdin: Returns: class label. Input: Cc1nc(NC(=O)OCCCl)c(C)c(C)c1O
stdout: middle group

* * *

Listed here are compounds together with their documented viability at 48 h, 1 µM.
Test: Cytotoxicity test (MTT), HT-29
Format: cell-based
Conditions: human, HT-29 cells (colorectal cancer cell line); HT-29, 48 h, 1 μM; read-out: Cell viability (% of control)
Give the quantity in %, number only.

Field: example entries. Status: answers known.
{"columns": ["compound", "viability at 48 h, 1 µM (%)"],
 "data": [
  ["Cc1nc(NC(=O)OCC(C)C)c(C)c(C)c1O", 93.3],
  ["COc1cccc2c1C(=O)c1c(O)c3c(c(O)c1C2=O)C[C@@](O)(C(=O)CO)C[C@@H]3O[C@H]1C[C@H](N)[C@H](O)[C@H](C)O1 [Doxorubicin, reference compound]", 58.2],
  ["O=c1[nH]cc(F)c(=O)[nH]1 [5-Fluorouracil, reference compound]", 61.9]
]}

Then this compound:
stdin: Return reported viability at 48 h, 1 µM; argument: CCCNC(=O)Nc1nc(C)c(O)c(C)c1C
stdout: 84.4

* * *

Assay: Cytotoxicity test (MTT), U937
Type: cell-based
Conditions: human, U937 cells (monocytic blood cancer-derived cell line); U937, 48 h, 10 μM; read-out: Cell viability (% of control)
Procedure: The human colorectal cancer cell line HT-29 and the monocytic blood cancer-derived cell line U937 were cultured in a RPMI 1640 medium containing 10% FBS and 1% penicillin/streptomycin (PS) at 37° C. under a condition of 5% CO2, and when the cells used herein were grown to 80% or more, they were subcultured at a ratio of 1:3. […]
Listed here are compounds together with their documented viability at 48 h, 10 µM.
Give the quantity in %, number only.

{"columns": ["compound structure string", "reading unit", "reading"],
 "data": [
  ["COCCOC(=O)Nc1nc(C)c(O)c(C)c1C", "%", 79.9],
  ["CCCCNC(=S)Nc1nc(C)c(O)c(C)c1C", "%", 91],
  ["Cc1ccc(S(=O)(=O)Nc2nc(C)c(O)c(C)c2C)cc1", "%", 90.5]
]}

stdin: Return reported viability at 48 h, 10 µM; argument: CCCCOC(=O)Nc1nc(C)c(O)c(C)c1C
stdout: 80.7

stdin: Return reported viability at 48 h, 10 µM; argument: Cc1nc(NS(=O)(=O)c2cccc3ccccc23)c(C)c(C)c1O
stdout: 85.1

* * *

Assay: Cytotoxicity test (MTT), U937
Type: cell-based
Conditions: human, U937 cells (monocytic blood cancer-derived cell line); U937, 48 h, 100 μM; read-out: Cell viability (% of control)
property: viability at 48 h, 100 µM (%)
Give the quantity in %, number only.

Field: example entries. Status: answers known.
{"columns": ["compound", "property", "reading"],
 "data": [
  ["Cc1nc(NS(=O)(=O)c2cccc3ccccc23)c(C)c(C)c1O [Compound 22-5]", "viability at 48 h, 100 µM", 62.5],
  ["COCCOC(=O)Nc1nc(C)c(O)c(C)c1C [Compound 20-5]", "viability at 48 h, 100 µM", 77.9],
  ["COC(=O)Nc1nc(C)c(O)c(C)c1C [Compound 20-1]", "viability at 48 h, 100 µM", 89.6],
  ["Cc1ccc(S(=O)(=O)Nc2nc(C)c(O)c(C)c2C)cc1 [Compound 22-2]", "viability at 48 h, 100 µM", 60.9],
  ["Cc1nc(NS(=O)(=O)c2ccc([N+](=O)[O-])cc2)c(C)c(C)c1O [Compound 22-4]", "viability at 48 h, 100 µM", 70.6]
]}

stdin: Return reported viability at 48 h, 100 µM; argument: Cc1nc(NS(C)(=O)=O)c(C)c(C)c1O [Compound 22-1]
stdout: 94.4

stdin: Return reported viability at 48 h, 100 µM; argument: CCCCOC(=O)Nc1nc(C)c(O)c(C)c1C [Compound 20-2]
stdout: 74.4

stdin: Return reported viability at 48 h, 100 µM; argument: Cc1nc(NC(=S)Nc2ccccc2)c(C)c(C)c1O [Compound 18-4]
stdout: 70.6

stdin: Return reported viability at 48 h, 100 µM; argument: Cc1nc(NC(=O)Nc2ccc(Cl)cc2)c(C)c(C)c1O [Compound 16-3]
stdout: 66

stdin: Return reported viability at 48 h, 100 µM; argument: COc1cccc2c1C(=O)c1c(O)c3c(c(O)c1C2=O)C[C@@](O)(C(=O)CO)C[C@@H]3O[C@H]1C[C@H](N)[C@H](O)[C@H](C)O1 [Doxorubicin, reference compound]
stdout: 33.2
